Target: EGFR L858R/T790M/C797S (Homo sapiens, UniProt P00533, C797S/L858R/T790M)
Sequence (P00533 25-1210 T790M/C797S/L858R): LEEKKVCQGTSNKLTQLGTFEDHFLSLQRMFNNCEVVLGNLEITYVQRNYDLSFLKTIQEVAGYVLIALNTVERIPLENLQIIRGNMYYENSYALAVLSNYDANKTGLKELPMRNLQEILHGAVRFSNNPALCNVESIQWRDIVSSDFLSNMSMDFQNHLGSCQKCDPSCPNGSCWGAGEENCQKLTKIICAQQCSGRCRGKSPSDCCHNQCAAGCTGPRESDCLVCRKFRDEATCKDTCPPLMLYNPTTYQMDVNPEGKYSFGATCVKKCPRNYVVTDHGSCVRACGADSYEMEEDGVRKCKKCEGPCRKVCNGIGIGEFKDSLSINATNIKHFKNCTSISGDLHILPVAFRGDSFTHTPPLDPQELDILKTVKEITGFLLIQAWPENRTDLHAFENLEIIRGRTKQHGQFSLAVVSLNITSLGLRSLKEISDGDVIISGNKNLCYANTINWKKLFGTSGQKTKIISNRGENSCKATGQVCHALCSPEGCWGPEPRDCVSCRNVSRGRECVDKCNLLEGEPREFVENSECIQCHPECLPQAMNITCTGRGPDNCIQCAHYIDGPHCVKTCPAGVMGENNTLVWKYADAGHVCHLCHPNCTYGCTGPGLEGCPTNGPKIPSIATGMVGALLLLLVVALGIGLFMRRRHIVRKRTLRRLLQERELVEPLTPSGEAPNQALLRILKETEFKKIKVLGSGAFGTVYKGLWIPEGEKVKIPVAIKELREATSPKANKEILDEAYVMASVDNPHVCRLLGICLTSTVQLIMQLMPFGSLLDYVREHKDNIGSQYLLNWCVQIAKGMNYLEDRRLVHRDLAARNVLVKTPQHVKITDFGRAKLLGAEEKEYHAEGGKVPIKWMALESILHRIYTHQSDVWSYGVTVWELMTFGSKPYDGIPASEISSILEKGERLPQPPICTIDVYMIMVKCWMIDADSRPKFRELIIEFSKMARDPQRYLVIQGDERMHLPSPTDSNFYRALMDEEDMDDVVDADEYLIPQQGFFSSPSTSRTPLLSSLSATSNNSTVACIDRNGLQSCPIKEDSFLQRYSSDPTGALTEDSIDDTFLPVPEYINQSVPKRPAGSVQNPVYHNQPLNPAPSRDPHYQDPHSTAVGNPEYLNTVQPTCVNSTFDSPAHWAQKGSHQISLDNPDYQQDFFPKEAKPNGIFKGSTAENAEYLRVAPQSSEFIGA
Test: Biochemical EGFR kinase inhibition assay (Lance Ultra TR-FRET), triple mutant L858R/T790M/C797S
Conditions: IC50 L858R/T790M/C797S (nM), 100 μM ATP
RECORDED_ENDPOINT: IC50 (nM)

MOLECULE: CC1(CO)CCN(c2cc(Nc3ccnc(-c4cnn(S(=O)(=O)C5CC5)c4)n3)ncc2C#Cc2ccncc2)CC1
SYSTEM_TESTED: EGFR L858R/T790M/C797S (Homo sapiens, UniProt P00533, C797S/L858R/T790M)
NUMERIC_RESULT: 0.5
//
MOLECULE: O=C(N1CCC(C#Cc2cnc(Nc3ccnc(-c4cnn(S(=O)(=O)C5CC5)c4)n3)cc2NC2CCC(O)CC2)C1)C(F)(F)F (stereo not drawn)
SYSTEM_TESTED: EGFR L858R/T790M/C797S (Homo sapiens, UniProt P00533, C797S/L858R/T790M)
NUMERIC_RESULT: 3.9
//
MOLECULE: CN1CCn2ncc(C#Cc3cnc(Nc4ccnc(-c5cnn(S(=O)(=O)C6CC6)c5)n4)cc3N3CCC(C)(CO)CC3)c2C1
SYSTEM_TESTED: EGFR L858R/T790M/C797S (Homo sapiens, UniProt P00533, C797S/L858R/T790M)
NUMERIC_RESULT: 0.5

* * *

Catalogue of compounds with associated IC50
Target: EGFR wildtype (WT) (Homo sapiens)
Sequence (P00533 25-1210): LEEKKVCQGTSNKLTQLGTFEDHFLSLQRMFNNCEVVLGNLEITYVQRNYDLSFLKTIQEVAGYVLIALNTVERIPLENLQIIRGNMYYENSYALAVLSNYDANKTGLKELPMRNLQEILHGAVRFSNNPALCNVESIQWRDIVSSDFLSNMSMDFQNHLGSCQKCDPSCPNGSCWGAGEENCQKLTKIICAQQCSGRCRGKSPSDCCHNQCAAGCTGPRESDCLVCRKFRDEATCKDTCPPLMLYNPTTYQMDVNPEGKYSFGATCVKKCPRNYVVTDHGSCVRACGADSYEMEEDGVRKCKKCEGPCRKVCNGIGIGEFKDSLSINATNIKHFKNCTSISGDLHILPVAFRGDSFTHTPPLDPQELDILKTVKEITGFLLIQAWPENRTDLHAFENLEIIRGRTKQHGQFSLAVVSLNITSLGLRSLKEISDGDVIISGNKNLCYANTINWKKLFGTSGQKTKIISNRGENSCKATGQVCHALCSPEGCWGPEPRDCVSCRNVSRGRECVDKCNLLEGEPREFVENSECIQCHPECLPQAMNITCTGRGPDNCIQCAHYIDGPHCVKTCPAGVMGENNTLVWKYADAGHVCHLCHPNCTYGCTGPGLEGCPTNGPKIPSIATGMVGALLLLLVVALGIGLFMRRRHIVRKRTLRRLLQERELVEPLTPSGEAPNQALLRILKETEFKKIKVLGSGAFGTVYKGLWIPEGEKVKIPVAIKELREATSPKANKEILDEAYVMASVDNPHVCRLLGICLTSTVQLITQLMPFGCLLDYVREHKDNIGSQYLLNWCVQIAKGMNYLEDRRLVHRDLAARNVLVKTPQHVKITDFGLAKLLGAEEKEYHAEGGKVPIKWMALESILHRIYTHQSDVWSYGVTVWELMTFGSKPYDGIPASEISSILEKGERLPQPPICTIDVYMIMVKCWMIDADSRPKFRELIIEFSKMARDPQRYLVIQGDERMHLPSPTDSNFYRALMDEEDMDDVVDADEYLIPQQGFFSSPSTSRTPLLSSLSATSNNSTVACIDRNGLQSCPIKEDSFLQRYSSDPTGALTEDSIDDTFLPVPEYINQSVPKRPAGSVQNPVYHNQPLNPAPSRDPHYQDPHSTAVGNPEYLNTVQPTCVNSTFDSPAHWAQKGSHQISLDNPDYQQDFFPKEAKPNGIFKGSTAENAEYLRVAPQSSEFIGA
Assay: Biochemical EGFR kinase inhibition assay (Lance Ultra TR-FRET), wildtype
Details: IC50 WT (nM), 100 μM ATP

COMPOUND: CC1(CO)CCN(c2cc(Nc3ccnc(-c4cnn(S(=O)(=O)C5CC5)c4)n3)ncc2C#CCCO)CC1 [Example 274]
IC50: 1890 nM
//
COMPOUND: O=S(=O)(C1CC1)n1cc(-c2nccc(Nc3cc(N[C@H]4CC[C@@H](O)CC4)c(C#Cc4ccsc4)cn3)n2)cn1 [Example 217]
IC50: > 10000 nM
//
COMPOUND: CN(C)CC1(O)CCN(c2cc(Nc3ccnc(-c4cnn(S(=O)(=O)C5CC5)c4)n3)ncc2C#Cc2cnn(C(F)(F)F)c2)CC1 [Example 317]
IC50: > 10000 nM
//
COMPOUND: Cn1cc(C#Cc2cnc(Nc3ccnc(-c4cnn(S(=O)(=O)C5CC5)c4)n3)cc2N2CCC(O)CC2)cn1 [Example 27]
IC50: > 10000 nM
//
COMPOUND: CC1(CO)CCN(c2cc(Nc3ccnc(-c4cnn(S(=O)(=O)C5CC5)c4)n3)ncc2C#Cc2cnn(C3CCOC3)c2)CC1 (centres unmarked) [Example 244]
IC50: 418 nM
//
COMPOUND: CN1CCN(Cc2ccc(C#Cc3cnc(Nc4ccnc(-c5cnn(S(=O)(=O)C6CC6)c5)n4)cc3NC[C@H]3CC[C@H](O)CC3)cc2)CC1 [Example 361]
IC50: > 10000 nM
//
COMPOUND: CC1(C#Cc2cnc(Nc3ccnc(-c4cnn(S(=O)(=O)C5CC5)c4)n3)cc2N[C@H]2CC[C@@H](O)CC2)CC1 [Example 359]
IC50: > 10000 nM
//
COMPOUND: O=C(c1ccc(C#Cc2cnc(Nc3ccnc(-c4cnn(S(=O)(=O)C5CC5)c4)n3)cc2N[C@H]2CC[C@@H](CO)CC2)cc1)N1CCC(O)CC1 [Example 441]
IC50: > 10000 nM
